Reference for the values: PubChem BioAssay AID1417

target: Induced myeloid leukemia cell differentiation protein Mcl-1 (Homo sapiens) (UniProt Q07820); assay: Mcl-1/Noxa binding inhibitor potency, dose response, biochemical, TR-FRET (AID 1417); conditions: Mcl-1/Noxa peptide interaction, cell-free TR-FRET (terbium/rhodamine), 2 h; measured here: absolute IC50
Sequence (Q07820 whole entry, looked up): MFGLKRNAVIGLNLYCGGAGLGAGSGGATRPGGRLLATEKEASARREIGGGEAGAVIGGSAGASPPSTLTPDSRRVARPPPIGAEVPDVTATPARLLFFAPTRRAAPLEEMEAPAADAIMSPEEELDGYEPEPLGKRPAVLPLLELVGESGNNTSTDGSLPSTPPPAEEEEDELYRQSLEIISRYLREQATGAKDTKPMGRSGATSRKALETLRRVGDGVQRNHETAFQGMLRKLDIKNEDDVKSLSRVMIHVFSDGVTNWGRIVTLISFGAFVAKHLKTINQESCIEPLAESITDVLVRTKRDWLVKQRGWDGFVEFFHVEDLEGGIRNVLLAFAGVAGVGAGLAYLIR
Hi there, I'd appreciate the recorded pIC50 for every entry that follows.
The value called pIC50 is obtained by taking minus log10 of the concentration in mol/L.

Give the measured pIC50 of Cc1ccc(CNC(=O)c2ccc(-n3cccc3)cc2)cc1 .
5.65

Would you mind doing CCc1nnc(NC(=O)c2cc(-c3ccco3)nc3ccccc23)s1 as well?
5.59

Would you mind doing O=C(/C=C\c1ccco1)c1ccc(NC(=O)c2ccco2)cc1 as well?
5.48

Would you mind doing COc1ccc(C(CC(=O)N2CCCC2)c2c(OC)cc(OC)c3c(-c4ccccc4)cc(=O)oc23)cc1 (stereo not given) as well?
5.41

====

Hi there, I'd appreciate the recorded IC50 for every entry that follows.
target: Induced myeloid leukemia cell differentiation protein Mcl-1 (Homo sapiens) (UniProt Q07820); assay: Mcl-1/Noxa binding inhibitor potency, dose response, biochemical, TR-FRET (AID 1417); conditions: Mcl-1/Noxa peptide interaction, cell-free TR-FRET (terbium/rhodamine), 2 h; measured here: absolute IC50
The reply should be a number in µM, with the unit left off.

Give the measured IC50 of O=c1[nH]c(=S)[nH]c(O)c1N=Nc1ccc(-c2ccccc2)cc1[N+](=O)[O-] .
2.99

Would you mind doing O=C(CSc1ccsc1[N+](=O)[O-])Nc1cccc(F)c1 as well?
2.61

Would you mind doing Cc1nc(C)c(C(=O)Nc2nc3c(C)cccc3s2)o1 as well?
2.63

Would you mind doing O=C(O)c1cccc(NC2=C(Cl)C(=O)c3ccccc3C2=O)c1 as well?
3.79

Would you mind doing O=C(O)CCn1cc(C=C2C(=O)NC(=S)NC2=O)c(-c2cc3ccccc3oc2=O)n1 as well?
3.08

Would you mind doing O=C(N/N=C/c1ccc(O)c(O)c1)c1ccc(CSc2cccc3cccnc23)cc1 as well?
3.09

Would you mind doing Oc1[nH]c(=S)sc1/C=C1\C(c2ccccc2)=Nc2ccccc21 as well?
8.66

Would you mind doing O=C(O)c1ccc2nc(-c3ccco3)c(-c3ccco3)nc2c1 as well?
1.63

====

molecular target: Induced myeloid leukemia cell differentiation protein Mcl-1 (Homo sapiens) (UniProt Q07820); assay: Mcl-1/Noxa binding inhibitor potency, dose response, biochemical, TR-FRET (AID 1417); conditions: Mcl-1/Noxa peptide interaction, cell-free TR-FRET (terbium/rhodamine), 2 h; measured here: absolute IC50
experimental.endpoint: log10(IC50) (log10 of the value in nM)
Hello, just confirming the data are log10 of IC50 with units of nM.

Give the measured log10(IC50) of O=C(CSc1nnc(-c2ccco2)c(-c2ccco2)n1)Nc1ccccc1 .
3.47

Would you mind doing Cc1ccccc1/C=N/Nc1ccnc2cc(Cl)ccc12 as well?
3.82

Would you mind doing N=c1oc2cc(O)ccc2cc1C(=O)Nc1nc2ccccc2s1 as well?
3.47

Would you mind doing C=C(C)C(=O)Nc1cccc(C2=NOC3(C2)C[C@@H](C(N)=O)N(C(=O)c2cc([N+](=O)[O-])cc([N+](=O)[O-])c2C)C3)c1 (stereo partly specified) as well?
3.61

Would you mind doing O=C(NCc1ccco1)c1c2c(nc3ccccc13)CCC2 as well?
3.60

Would you mind doing C(=C\c1ccco1)/c1ccc2ccccc2n1 as well?
3.62

Would you mind doing O=C(Nc1ccc2nc(-c3ccco3)c(-c3ccco3)nc2c1)NC1CC1 as well?
3.12

Would you mind doing O=C(COC(=O)c1ccc2c(c1)C(=O)N(Cc1ccncc1)C2=O)Nc1ccccc1[N+](=O)[O-] as well?
3.40

Would you mind doing CCCCOC(=O)Nc1ccc(N(C)C)cc1 as well?
4.72

Would you mind doing O=C(N/N=C/c1ccc(-c2ccc(S(=O)(=O)Nc3ncccn3)cc2)o1)c1cc2ccccc2cc1O as well?
3.16

Would you mind doing COc1ccc(CN2C(=O)/C(=C/c3ccc(-c4ccc(Cl)c(C(=O)O)c4)o3)SC2=S)cc1 as well?
3.19

Would you mind doing CN1CCN(S(=O)(=O)c2ccc(NC(=S)NC(=O)c3ccc(Cl)cc3)cc2)CC1 as well?
3.56

Would you mind doing CCOC(=O)c1c(NC(=O)c2cc(-c3ccc(O)cc3)on2)sc(C(C)=O)c1C as well?
4.04

Would you mind doing O=C(NCc1ccccn1)c1ccc2nc(-c3ccco3)c(-c3ccco3)nc2c1 as well?
3.14

Would you mind doing NC(=O)c1ccsc1NC(=O)COC(=O)/C=C/c1ccc([N+](=O)[O-])cc1 as well?
3.46

====

molecular target: Induced myeloid leukemia cell differentiation protein Mcl-1 (Homo sapiens) (UniProt Q07820); experiment: Mcl-1/Noxa binding inhibitor potency, dose response, biochemical, TR-FRET (AID 1417); conditions: Mcl-1/Noxa peptide interaction, cell-free TR-FRET (terbium/rhodamine), 2 h; measured here: absolute IC50
pIC50: −log10 of the molar value.
Hi there, I'd appreciate the recorded pIC50 for every entry that follows.

Give the measured pIC50 of O=c1c(-c2c(O)cc(O)c3c(=O)cc(-c4ccc(O)cc4)oc23)c(-c2ccc(O)cc2)oc2cc(O)cc(O)c12 .
< 4.27

Would you mind doing CC1=C(C(=O)OCC(C)C)C(c2ccsc2)NC(=O)N1 (stereo unspecified) as well?
< 4.27

Would you mind doing CCOC(=O)c1ccc(N=Nc2c(C)c(C#N)c(O)[nH]c2=O)cc1 as well?
5.55

Would you mind doing O=C(Nc1ccc2nc(-c3ccc4nc[nH]c4c3)[nH]c2c1)c1cccs1 as well?
5.57

Would you mind doing COc1ccc(C(=O)c2sc3nc(-c4ccccc4)ccc3c2N)cc1OC as well?
< 4.27

Would you mind doing Cc1ccccc1C(=O)Nc1nc(-c2cccnc2)cs1 as well?
> 6.40

Would you mind doing CCOc1ccc(C2C3=C(Nc4nc(N)[nH]c(=O)c42)c2ccccc2C3=O)cc1 (stereo unspecified) as well?
4.63

Would you mind doing Cc1ccc(S(=O)(=O)C(CCC(=O)N2CCOCC2)S(=O)(=O)c2ccc(C)cc2)cc1 as well?
< 4.27

Would you mind doing CCc1ccc(S(=O)(=O)/N=C2\C=CC(=O)c3ccccc32)cc1 as well?
> 6.40

Would you mind doing O=C(/C=C/c1ccco1)Nc1ccc2nn(-c3ccccc3)nc2c1 as well?
5.49

Would you mind doing O=C(O)c1ccc(N2C(=O)/C(=C/c3ccc(-c4ccc([N+](=O)[O-])cc4)o3)C=C2c2ccccc2)cc1 as well?
> 6.40

Would you mind doing COc1ccc(N2C(=O)C3CCCN3C2=O)cc1 (stereo unspecified) as well?
< 4.27

Would you mind doing Fc1cc(F)c2nc(Nc3nc4cc5c(cc4s3)OCO5)sc2c1 as well?
> 6.40

Would you mind doing Cc1ccc(C(=O)COC(=O)CNC(=O)c2ccc(N3C(=O)c4ccccc4C3=O)cc2)cc1C as well?
< 4.27

Would you mind doing CN(C)c1ccc(/C=N/NC(=O)c2cccc(C(=O)N/N=C/c3ccc(N(C)C)cc3)n2)cc1 as well?
> 6.40

Would you mind doing O=C(O)c1ccccc1N/N=C/c1c(Sc2nnnn2-c2ccccc2)nc2ccccn2c1=O as well?
> 6.40

Would you mind doing O=C(Nc1cccc(Cl)c1)c1cc(N=Nc2ccc([N+](=O)[O-])cc2Cl)ccc1O as well?
5.81

Would you mind doing CC(C)CC1NC(=O)N(CC(=O)c2ccc3c(c2)OCCO3)C1=O (stereo unspecified) as well?
< 4.27

Would you mind doing Nc1ccc(Cc2ccc(N)c(O)c2)cc1O as well?
> 6.40

Would you mind doing O=C(NN1C(=O)/C(=C/C=C/c2ccco2)SC1=S)c1ccncc1 as well?
5.65

Would you mind doing CN1C(=O)/C(=C2\SC(=S)N(CCCCCC(=O)O)C2=O)c2ccccc21 as well?
5.55

====

target: Induced myeloid leukemia cell differentiation protein Mcl-1 (Homo sapiens); test: Mcl-1/Noxa binding inhibitor potency, dose response, biochemical, TR-FRET (AID 1417); conditions: Mcl-1/Noxa peptide interaction, cell-free TR-FRET (terbium/rhodamine), 2 h; measured here: absolute IC50
experimental.endpoint: pIC50
The value called pIC50 is obtained by taking minus log10 of the concentration in mol/L.

Give the measured pIC50 of NC(=S)n1[nH]c(-c2ccc([N+](=O)[O-])cc2)c(N=Nc2cccc(Cl)c2)c1=O .
5.83

Would you mind doing N#CC1=C(N)N(c2ccc(F)cc2)C2=C(C1c1ccc(O)cc1)S(=O)(=O)CC2 (stereo unspecified) as well?
5.47

Would you mind doing Cc1ccc(/C=C/C(=O)NCc2ccccn2)o1 as well?
5.31

Would you mind doing CCOc1ccc(-c2ccc(/C=C3/C(=N)N4C=CSC4=NC3=O)o2)c([N+](=O)[O-])c1 as well?
5.80

Would you mind doing CC1=C(SCCC#N)S/C(=C2\SC(C)=C(SCCC#N)S2)S1 as well?
5.57

Would you mind doing CC(C)c1ccc(Nc2nnc(SCC(=O)c3nnc(-c4ccccc4)o3)s2)cc1 as well?
5.72

Would you mind doing CCn1nc([N+](=O)[O-])c(C(C#N)c2nc3cc(C(F)(F)F)ccc3s2)c(Cl)c1=O (stereo unspecified) as well?
5.50

Would you mind doing O=C(Nc1ccc(N2CCCC2)cc1)c1ccc2ccccc2c1 as well?
5.30

Would you mind doing O=[N+]([O-])c1ccc(-c2cn(-c3ccc(Cl)cc3)c(=S)[nH]2)cc1 as well?
5.14

Would you mind doing COc1ccc(OC)c(/C=N/c2oc(-c3ccco3)c(-c3ccco3)c2C#N)c1 as well?
5.01

Would you mind doing Cc1cc(C(=O)N/N=C/c2cc(N=Nc3ccccc3)ccc2O)n[nH]1 as well?
4.96

Would you mind doing O=C(N/N=C/c1ccc(O)cc1O)c1ccc(CN2C(=O)c3cccc4cccc2c34)cc1 as well?
5.89

Would you mind doing COc1ccccc1/C=C1/SC(=O)N(CCC(=O)Nc2ccc(S(=O)(=O)Nc3nccs3)cc2)C1=O as well?
5.54

Would you mind doing N=c1c(C(=O)NCc2ccc3c(c2)OCO3)cc2c(=O)n3ccccc3nc2n1Cc1cccnc1 as well?
5.49

Would you mind doing O=[N+]([O-])c1cccc(N/N=C/c2cc([N+](=O)[O-])ccc2O)c1 as well?
6.37

Would you mind doing O=C(c1ccccc1)c1ccc2nc(-c3ccco3)c(-c3ccco3)nc2c1 as well?
5.36

Would you mind doing CC1=NN(c2cccc(C(=O)O)c2)C(=O)/C1=C\C=C\c1ccco1 as well?
5.35
